Source: ChEMBL document CHEMBL1130092

# Target Desc: Integrin alpha-V/beta-3 (Homo sapiens, UniProt P05106+P06756)
# Sequence (P05106 27-788 limits assumed): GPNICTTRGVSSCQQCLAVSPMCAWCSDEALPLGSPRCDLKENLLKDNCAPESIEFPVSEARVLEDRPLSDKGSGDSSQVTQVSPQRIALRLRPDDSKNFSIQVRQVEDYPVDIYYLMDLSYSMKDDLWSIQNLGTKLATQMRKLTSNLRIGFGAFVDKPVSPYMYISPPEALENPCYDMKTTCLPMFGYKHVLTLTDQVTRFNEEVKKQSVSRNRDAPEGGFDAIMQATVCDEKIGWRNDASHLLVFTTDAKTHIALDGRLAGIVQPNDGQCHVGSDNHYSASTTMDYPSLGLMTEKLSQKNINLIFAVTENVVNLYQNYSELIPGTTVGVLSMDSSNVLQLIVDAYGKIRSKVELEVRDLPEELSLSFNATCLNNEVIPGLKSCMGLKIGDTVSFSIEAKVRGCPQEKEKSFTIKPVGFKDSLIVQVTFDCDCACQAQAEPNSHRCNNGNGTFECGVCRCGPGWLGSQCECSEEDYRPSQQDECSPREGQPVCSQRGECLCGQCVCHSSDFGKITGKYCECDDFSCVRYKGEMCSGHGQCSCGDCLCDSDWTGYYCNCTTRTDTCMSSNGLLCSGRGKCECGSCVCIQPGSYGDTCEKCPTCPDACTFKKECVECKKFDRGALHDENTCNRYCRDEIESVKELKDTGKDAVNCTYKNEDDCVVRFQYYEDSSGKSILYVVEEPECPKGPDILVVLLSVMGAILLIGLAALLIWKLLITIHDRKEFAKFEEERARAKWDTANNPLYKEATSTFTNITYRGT
# Sequence (P06756 31-889 limits assumed): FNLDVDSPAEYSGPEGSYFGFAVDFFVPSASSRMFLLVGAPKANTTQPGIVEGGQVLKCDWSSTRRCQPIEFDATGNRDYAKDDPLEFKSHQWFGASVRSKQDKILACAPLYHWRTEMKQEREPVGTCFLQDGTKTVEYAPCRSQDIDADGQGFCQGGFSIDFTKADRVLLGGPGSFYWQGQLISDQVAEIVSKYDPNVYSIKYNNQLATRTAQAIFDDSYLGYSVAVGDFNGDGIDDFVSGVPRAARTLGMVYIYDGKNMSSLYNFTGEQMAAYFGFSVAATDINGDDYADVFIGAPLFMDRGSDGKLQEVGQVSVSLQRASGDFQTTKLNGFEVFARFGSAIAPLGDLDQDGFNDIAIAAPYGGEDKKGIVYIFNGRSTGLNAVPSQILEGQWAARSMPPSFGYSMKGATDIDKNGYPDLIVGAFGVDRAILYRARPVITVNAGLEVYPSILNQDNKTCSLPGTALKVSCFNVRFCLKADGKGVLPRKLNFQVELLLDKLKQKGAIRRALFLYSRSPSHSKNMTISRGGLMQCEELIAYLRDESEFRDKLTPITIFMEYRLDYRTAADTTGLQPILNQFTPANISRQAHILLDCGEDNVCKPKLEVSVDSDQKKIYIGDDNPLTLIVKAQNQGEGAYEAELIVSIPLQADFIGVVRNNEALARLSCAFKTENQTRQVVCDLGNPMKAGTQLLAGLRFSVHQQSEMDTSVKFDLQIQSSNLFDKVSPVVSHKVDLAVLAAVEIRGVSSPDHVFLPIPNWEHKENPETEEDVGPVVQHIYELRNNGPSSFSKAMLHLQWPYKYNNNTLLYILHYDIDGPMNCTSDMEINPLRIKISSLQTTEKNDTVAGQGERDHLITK
# Sequence (P06756 891-1048 limits assumed): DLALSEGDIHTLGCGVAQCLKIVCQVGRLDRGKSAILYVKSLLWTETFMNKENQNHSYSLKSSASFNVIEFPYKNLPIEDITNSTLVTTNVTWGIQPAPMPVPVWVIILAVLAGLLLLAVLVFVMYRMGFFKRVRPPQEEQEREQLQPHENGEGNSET
# Measurement Description: Affinity for vitronectin receptor, integrin alphaV-beta3
Bridge positions count the residues as written; N and C are the ends. Peptide text beside a SMILES is read from it.
Value Type: Ki (nM)

Worked examples, 5 molecules total:
[
  {
    "Molecule": "CN1C(=O)c2ccccc2SSc2ccccc2NC(=O)[C@H](CC(=O)O)NC(=O)CNC(=O)[C@@H]1CCCN=C(N)N",
    "Target Desc": "Integrin alpha-V/beta-3 (Homo sapiens, UniProt P05106+P06756)",
    "Measurement Units": "nM",
    "Ki": 3.5
  },
  {
    "Molecule": "N/C1=N/CCC[C@H](N)C(=O)NCC(=O)N[C@@H](CC(=O)O)C(=O)N[C@@H](CO)C(=O)N[C@@H](Cc2ccccc2)C(=O)NCC(=O)N1 (H-RGDSFG; lactam 1-C)",
    "Target Desc": "Integrin alpha-V/beta-3 (Homo sapiens, UniProt P05106+P06756)",
    "Measurement Units": "nM",
    "Ki": 10
  },
  {
    "Molecule": "CN1Cc2cc(C(=O)N3CCN(c4ccncc4)CC3)ccc2NC(CC(=O)O)C1=O (configuration not stated)",
    "Target Desc": "Integrin alpha-V/beta-3 (Homo sapiens, UniProt P05106+P06756)",
    "Measurement Units": "nM",
    "Ki": 1000
  },
  {
    "Molecule": "CN(C(=O)c1ccccc1)[C@@H](CCCNC(=N)N)C(=O)NCC1=CC(CC(=O)O)C(=O)N(c2ccccc2)CC1 (some centres not stated)",
    "Target Desc": "Integrin alpha-V/beta-3 (Homo sapiens, UniProt P05106+P06756)",
    "Measurement Units": "nM",
    "Ki": 50
  },
  {
    "Molecule": "CN1Cc2cc(C(=O)NCCc3nc4ccccc4[nH]3)ccc2NC(CC(=O)O)C1=O (configuration not stated)",
    "Target Desc": "Integrin alpha-V/beta-3 (Homo sapiens, UniProt P05106+P06756)",
    "Measurement Units": "nM",
    "Ki": 1100
  }
]

[1] CN1Cc2cc(C(=O)NCc3nc4ccccc4[nH]3)ccc2NC(CC(=O)O)C1=O (configuration not stated)
[2] CN1Cc2cc(C(=O)NCc3nc4ccccc4[nH]3)ccc2N[C@@H](CC(=O)O)C1=O
Response body: label of entry with the larger Ki; valid values 1 , 2 . Answer format: the label of the selected item. 1
